ASSAYED TARGET: Fuc(a1-2)[GalNAc(a1-3)]Gal(b1-3)GalNAc(a1-3)[Fuc(a1-2)]Gal(b1-4)GlcNAc
EXPERIMENTAL PROTOCOL: glycan array binding signal (z-score within array); higher = stronger binding
CONDITION: glycan notation: IUPAC condensed, linker removed
The entries come from a sample that favours the strongest signals as a whole.
READOUT LABEL: glycan array binding signal (z-score)

Prompt line: Name the recorded glycan array binding signal (z-score) for SJCP1531 (Schistosoma japonicum) (protein) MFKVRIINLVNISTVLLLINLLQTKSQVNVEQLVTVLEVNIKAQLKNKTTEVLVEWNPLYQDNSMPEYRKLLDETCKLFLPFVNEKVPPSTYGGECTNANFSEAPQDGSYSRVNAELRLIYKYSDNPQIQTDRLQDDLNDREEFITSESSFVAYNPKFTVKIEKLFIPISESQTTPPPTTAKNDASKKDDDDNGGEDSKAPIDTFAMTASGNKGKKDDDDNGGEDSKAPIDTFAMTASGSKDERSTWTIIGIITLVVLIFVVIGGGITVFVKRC .
Response line: -0.433
